Target: beta-catenin/TCF4 engagement (Homo sapiens)
Construct: expressed in transfected cells; host or cells: HEK293
Sequence (P35222 1-781): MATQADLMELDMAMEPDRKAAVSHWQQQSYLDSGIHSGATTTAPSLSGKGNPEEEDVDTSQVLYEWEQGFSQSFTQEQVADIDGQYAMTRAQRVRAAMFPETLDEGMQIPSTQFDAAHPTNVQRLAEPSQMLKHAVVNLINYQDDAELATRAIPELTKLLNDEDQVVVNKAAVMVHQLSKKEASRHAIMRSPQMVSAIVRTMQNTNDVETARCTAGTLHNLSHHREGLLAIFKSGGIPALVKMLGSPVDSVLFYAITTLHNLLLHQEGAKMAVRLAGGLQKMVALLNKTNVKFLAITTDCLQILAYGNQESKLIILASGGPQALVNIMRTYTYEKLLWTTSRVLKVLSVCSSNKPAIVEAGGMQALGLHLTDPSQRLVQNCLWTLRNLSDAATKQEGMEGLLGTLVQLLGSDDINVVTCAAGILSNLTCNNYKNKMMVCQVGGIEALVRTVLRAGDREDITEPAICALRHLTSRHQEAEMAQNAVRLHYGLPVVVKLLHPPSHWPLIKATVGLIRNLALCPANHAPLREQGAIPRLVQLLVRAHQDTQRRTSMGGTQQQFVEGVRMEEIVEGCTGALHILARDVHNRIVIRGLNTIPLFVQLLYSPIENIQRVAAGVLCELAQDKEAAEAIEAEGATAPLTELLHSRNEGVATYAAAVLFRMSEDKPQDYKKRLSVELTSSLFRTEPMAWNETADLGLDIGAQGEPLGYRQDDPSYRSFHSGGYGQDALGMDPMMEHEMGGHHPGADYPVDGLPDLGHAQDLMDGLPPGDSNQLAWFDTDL
Assay: Nano-BRET target engagement assay (B-cat-Halo & TCF4-Luc in HEK293 cells)
Type: cell-based
Conditions: read-out: NanoBRET IC50
Task for the reader: assign each of the following molecules its reported pIC50.
Numbers only, as −log10 of the molar value.

The following molecules have reported results that may help.
CC(=O)N1CCC[C@]12CC=CCCCC1(CCCC=CCCCOC(=O)N3CC[C@@](C(=O)N[C@@H](Cc4ccsc4)C(=O)N[C@@H](Cc4csc5ccccc45)C(=O)N[C@@H](CCC(N)=O)C(N)=O)(C3)NC(=O)[C@H]([C@@H](C)O)NC(=O)[C@H](Cc3ccccc3)NC(=O)[C@H](C)NC(=O)[C@H](C)NC(=O)[C@H](CC(=O)O)NC(=O)[C@H](CC(=O)O)NC1=O)NC(=O)[C@H](CC(C)(C)C)NC(=O)[C@H](CC(=O)O)NC2=O (some centres unmarked) : 4.93
CC(=O)N1CCC[C@]12CC=CCCCC1(CCCC=CCCCCCC[C@@](C)(C(=O)N[C@@H](Cc3ccccc3Cl)C(=O)N[C@@H](Cc3csc4ccccc34)C(=O)N[C@@H](CCC(N)=O)C(N)=O)NC(=O)[C@H]([C@@H](C)O)NC(=O)[C@H](Cc3ccccc3)NC(=O)[C@H](C)NC(=O)[C@H](C)NC(=O)[C@H](CN(CC(=O)O)CC(F)(F)F)NC(=O)[C@H](CC(=O)O)NC1=O)NC(=O)[C@H](CC(C)(C)C)NC(=O)[C@H](CC(=O)O)NC2=O (some centres unmarked) : 5.25
CC(=O)N1CCC[C@]12CC=CCCCC1(CCCC=CCCCOC(=O)N3CC[C@@](C(=O)N[C@@H](Cc4ccsc4)C(=O)N[C@@H](Cc4csc5ccccc45)C(=O)N[C@H](C(N)=O)[C@@H](C)O)(C3)NC(=O)[C@H](CC(N)=O)NC(=O)[C@H](Cc3ccccc3)NC(=O)[C@H](C)NC(=O)[C@H](C)NC(=O)[C@H](CC(=O)O)NC(=O)[C@H](CC(=O)O)NC1=O)NC(=O)[C@H](CC(C)(C)C)NC(=O)[C@H](CC(=O)O)NC2=O (some centres unmarked) : 4.90
CC(=O)N1CCC[C@]12CC=CCCCC1(CCCC=CCCCOC(=O)N3CC[C@@](C(=O)N[C@@H](Cc4ccsc4)C(=O)N[C@@H](Cc4csc5ccccc45)C(=O)N[C@@H](CCC(N)=O)C(N)=O)(C3)NC(=O)[C@H](CC(N)=O)NC(=O)[C@H](Cc3ccccc3)NC(=O)[C@H](C)NC(=O)[C@H](C)NC(=O)[C@H](CN(CC(=O)O)CC(F)(F)F)NC(=O)[C@H](CC(=O)O)NC1=O)NC(=O)[C@H](CC(C)(C)C)NC(=O)[C@H](CC(=O)O)NC2=O (some centres unmarked) : 5.30

Continue with the molecule presented below.
Data request: Reported pIC50, molecule CC(=O)N1CCC[C@]12CC=CCCCC1(CCCC=CCCCCCC[C@@](C)(C(=O)N[C@@H](Cc3ccccc3Cl)C(=O)N[C@@H](Cc3csc4ccccc34)C(=O)N[C@@H](CCC(N)=O)C(N)=O)NC(=O)[C@H](CC(N)=O)NC(=O)[C@H](Cc3ccccc3)NC(=O)[C@H](C)NC(=O)[C@H](C)NC(=O)[C@H](CN(CC(=O)O)CC(F)(F)F)NC(=O)[C@H](CC(=O)O)NC1=O)NC(=O)[C@H](CC(C)(C)C)NC(=O)[C@H](CC(=O)O)NC2=O (some centres unmarked) : ____
Data returned: 5.15
